Recorded values, source paper PMC6149869.

# test_method_notes: Clearance of sorafenib in cultured MHCC97-H cells
# Assay type: in vitro ADME
# run_conditions: human, Half-life (t1/2 value) of Sor, 1 µmol/L sorafenib, miR-140-3p + inhibitor
reported_endpoint: half-life at 1 µmol/L

• CNC(=O)c1cc(Oc2ccc(NC(=O)Nc3ccc(Cl)c(C(F)(F)F)c3)cc2)ccn1 [Sor, sorafenib] = 14.7 h
